The measured values listed here are drawn from PubChem BioAssay AID270.

System: BDF1 mice, s.c. Lewis lung carcinoma, T/C %
Assay: NCI In Vivo Anticancer Drug Screen. Data for tumor model Lewis Lung Carcinoma (subcutaneous) in B6D2F1 (BDF1) mice
Details: endpoint: median survival time; dose: 100.0 mg/kg/injection; schedule: Q01DX009 (ip); vehicle: water; higher = longer survival
Records with an inconclusive call do not appear.
assayMetric: T/C

Sample answers from the record:
compound	value
NC(=O)NO	94 % of control
CNC1C(OC2C(OC3C(O)C(O)C(N=C(N)N)C(O)C3N=C(N)N)OC(C)C2(O)C=O)OC(CO)C(O)C1O (stereo not given)	102 % of control
Cc1nc(N)c(C)c(C(=O)O)n1	117 % of control
COc1cc(O)c2c(c1)C(=O)c1cc3c(c(O)c1C2=O)C(O)C(OC)C(C)(O)C3=O (stereo not given)	103 % of control

Next up:
Data request: I would be grateful if you could share the reported T/C for CNc1nc(N(C)C)nc(N(C)C)n1 .
Data returned: 116 % of control

* * *

System: BDF1 mice, s.c. Lewis lung carcinoma, T/C %
Assay: NCI In Vivo Anticancer Drug Screen. Data for tumor model Lewis Lung Carcinoma (subcutaneous) in B6D2F1 (BDF1) mice
Details: endpoint: mean tumor weight; dose: 1.25 mg/kg/injection; schedule: Q01DX011 (ip); vehicle: saline; higher = larger tumour
Results filed as inconclusive are left out.
assayMetric: T/C

Sample answers from the record:
compound	T/C
CC[C@H]1CN2CCc3cc(OC)c(OC)cc3[C@@H]2C[C@@H]1C[C@H]1NCCc2cc(O)c(OC)cc21	94 % of control
Nc1ncnc2c1ccn2C1OC(CO)C(O)C1O (stereo not given)	84 % of control
NC(=O)N(CCCl)N=O	53 % of control
CC1OC(O[C@@H]2C=C3CC[C@@H]4[C@H](CC[C@]5(C)[C@@H](c6ccc(=O)oc6)CC[C@]45O)[C@@]3(C)CC2)C(O)C(O)C1O (stereo not given in full)	114 % of control

Next up:
Data request: I would be grateful if you could share the reported T/C for CN[C@H]1CCc2cc(OC)c(OC)c(OC)c2-c2ccc(OC)c(=O)cc21 .
Data returned: 85 % of control

* * *

Tested on: BDF1 mice, s.c. Lewis lung carcinoma, T/C %
Experiment: NCI In Vivo Anticancer Drug Screen. Data for tumor model Lewis Lung Carcinoma (subcutaneous) in B6D2F1 (BDF1) mice
Details: endpoint: mean tumor weight; dose: 25.0 mg/kg/injection; schedule: Q01DX011 (ip); vehicle: carboxymethylcellulose (CMC); higher = larger tumour
Results filed as inconclusive are left out.
assayMetric: T/C

Sample answers from the record:
molecule	value
COc1cccc(C=O)c1O	58 % of control
CNCc1ccccc1	105 % of control
O=C1C(=O)c2ccccc2C(O)=C1CC=C(Cl)Cl	76 % of control

Data request: I would be grateful if you could share the reported T/C for COc1cccc(/C=N\NC(=O)C(C)SC(C)C(=O)N/N=C/c2cccc(OC)c2)c1 (stereo not drawn) .
Data returned: 82 % of control

Data request: Thanks! And C=CCNc1ccc(C)cc1 ?
Data returned: 93 % of control

Data request: Thanks! And CN[C@@H](C)[C@@H](O)c1ccccc1 ?
Data returned: 123 % of control

* * *

Test system: BDF1 mice, s.c. Lewis lung carcinoma, T/C %
Test: NCI In Vivo Anticancer Drug Screen. Data for tumor model Lewis Lung Carcinoma (subcutaneous) in B6D2F1 (BDF1) mice
Settings: endpoint: mean tumor weight; dose: 66.0 mg/kg/injection; schedule: Q01DX011 (ip); vehicle: other; higher = larger tumour
Results filed as inconclusive are left out.
assayMetric: T/C

Sample answers from the record:
compound	subjectOfTest	T/C
O=P(c1ccccc1)(c1ccccc1)P(=O)(c1ccccc1)c1ccccc1	BDF1 mice, s.c. Lewis lung carcinoma, T/C %	79 % of control
Nc1cc(Cl)cc(Cl)c1	BDF1 mice, s.c. Lewis lung carcinoma, T/C %	98 % of control
[I][Hg][CH2]C1COCC([CH2][Hg][I])O1.[I][Hg][CH2]C1COCC([CH2][Hg][I])O1 (centres undefined)	BDF1 mice, s.c. Lewis lung carcinoma, T/C %	36 % of control

Next up:
Data request: I would be grateful if you could share the reported T/C for N#CCC(=O)O .
Data returned: 47 % of control

* * *

Catalogue of T/C values
System: BDF1 mice, s.c. Lewis lung carcinoma, T/C %
Test: NCI In Vivo Anticancer Drug Screen. Data for tumor model Lewis Lung Carcinoma (subcutaneous) in B6D2F1 (BDF1) mice
Settings: endpoint: mean tumor weight; dose: 5.0 mg/kg/injection; schedule: Q01DX011 (ip); vehicle: other; higher = larger tumour
Records with an inconclusive call do not appear.

compound	subjectOfTest	T/C
CCCCCCCCCCCCNCCCCCCCCCCCC	BDF1 mice, s.c. Lewis lung carcinoma, T/C %	67 % of control
Nc1nc(SN=Nc2ccc(S(N)(=O)=O)cc2)c2[nH]cnc2n1	BDF1 mice, s.c. Lewis lung carcinoma, T/C %	35 % of control
CCCNC(=NC)c1ccc(NC(=O)c2ccc(C(=O)Nc3ccc(C(=NC)NCCC)cc3)cc2)cc1	BDF1 mice, s.c. Lewis lung carcinoma, T/C %	56 % of control
CSc1ncc(Br)c(Sc2nc(N)nc3nc[nH]c23)n1	BDF1 mice, s.c. Lewis lung carcinoma, T/C %	57 % of control
CCCC(Sc1nc(N)nc2nc[nH]c12)C(=O)O (stereo unspecified)	BDF1 mice, s.c. Lewis lung carcinoma, T/C %	115 % of control

Next up:
Data request: I would be grateful if you could share the reported T/C for CN(C)c1ccc(/C=C\c2ccnc3ccccc23)cc1 .
Data returned: 75 % of control

* * *

Test system: BDF1 mice, s.c. Lewis lung carcinoma, T/C %
Assay: NCI In Vivo Anticancer Drug Screen. Data for tumor model Lewis Lung Carcinoma (subcutaneous) in B6D2F1 (BDF1) mice
Details: endpoint: mean tumor weight; dose: 1.0 mg/kg/injection; schedule: Q01DX011 (ip); vehicle: carboxymethylcellulose (CMC); higher = larger tumour
Experimental: The antitumor activity of compounds was measured in mice bearing transplantable tumors. Survival or tumor size were measured and the results are expressed as the measurement made in the treated group (T) divided by the measurement made in the vehicle treated control group (C). The tumor model used in this assay is Lewis Lung Carcinoma (subcutaneous) in B6D2F1 (BDF1) mice
Inconclusive results are not listed.
assayMetric: T/C

Sample answers from the record:
compound	T/C
CN(Cc1cnc2nc(N)nc(N)c2n1)c1ccc(C(=O)N[C@@H](CCC(=O)O)C(=O)O)cc1	91 % of control
CC1CN(C(=O)CCl)c2ccccc2N1C(=O)CCl (stereo unspecified)	121 % of control
C[C@]12CC[C@H](OC3OC(CO)C(O)C(O)C3O)C[C@H]1CC[C@@H]1[C@@H]2CC[C@]2(C)[C@@H](C3=CCOC3=O)CC[C@]12O (stereo partly specified)	14 % of control

Data request: I would be grateful if you could share the reported T/C for COc1cc(C(=O)OC2CC34CCNC35CC(OC5(OC)C2O)c2cc3c(cc24)OCO3)ccc1O (stereo unspecified) .
Data returned: 87 % of control

Data request: Thanks! And CN1CCCC1c1cccnc1 (stereo unspecified) ?
Data returned: 62 % of control

Data request: Thanks! And COc1cc([C@@H]2c3cc4c(cc3[C@H](O)[C@H]3COC(=O)[C@H]23)OCO4)cc(OC)c1OC ?
Data returned: 84 % of control

* * *

Test system: BDF1 mice, s.c. Lewis lung carcinoma, T/C %
Assay: NCI In Vivo Anticancer Drug Screen. Data for tumor model Lewis Lung Carcinoma (subcutaneous) in B6D2F1 (BDF1) mice
Settings: endpoint: mean tumor weight; dose: 1.0 mg/kg/injection; schedule: Q01DX011 (ip); vehicle: other; higher = larger tumour
Results filed as inconclusive are left out.
assayMetric: T/C

molecule	T/C
O=C(Nc1ccc(C2=NCCCN2)cc1)c1ccc(C(=O)Nc2ccc(C3=NCCCN3)cc2)cc1	85 % of control
Cn1cnc([N+](=O)[O-])c1Sc1nc(N)nc2c1ncn2C1OC(CO)C(O)C1O (configuration not stated)	76 % of control
CCCCn1cnc2c(=S)nc(N)[nH]c21	73 % of control
COC(=O)c1nc(-c2ccc3c(n2)C(=O)C(N)=C(OC)C3=O)c(N)c(-c2ccc(OC)c(OC)c2O)c1C	45 % of control

Data request: I would be grateful if you could share the reported T/C for CC(C)([NH-])CO.CC(C)([NH-])CO.[Cl][Cd][Cl] .
Data returned: 122 % of control

Data request: Thanks! And COc1ccc(Nc2ccnc3cc(Cl)ccc23)cc1CN(CCCl)CCCl ?
Data returned: 32 % of control

Data request: Thanks! And N#CCCN(Cc1ccccc1)C(N)=O ?
Data returned: 68 % of control

* * *

Test system: BDF1 mice, s.c. Lewis lung carcinoma, T/C %
Assay: NCI In Vivo Anticancer Drug Screen. Data for tumor model Lewis Lung Carcinoma (subcutaneous) in B6D2F1 (BDF1) mice
Conditions: endpoint: median survival time; dose: 6.25 mg/kg/injection; schedule: Q01DX009 (ip); vehicle: Klucel (hydroxypropylcellulose) (HPC); higher = longer survival
Inconclusive results are not listed.
Catalogue of T/C values

Sample answers from the record:
compound	subjectOfTest	T/C
O=NN(CCCl)C(=O)NCC1CCC(CNC(=O)N(CCCl)N=O)CC1 (stereo not given)	BDF1 mice, s.c. Lewis lung carcinoma, T/C %	93 % of control
Cc1cc(N)c2cc(NC(=O)CCCCCCCCC(=O)Nc3ccc4nc(C)cc(N)c4c3)ccc2n1	BDF1 mice, s.c. Lewis lung carcinoma, T/C %	104 % of control
C=C1C(=O)OC2CC1C(O)C/C(C)=C/CC/C(C)=C/C(O)CC2C (stereo not given)	BDF1 mice, s.c. Lewis lung carcinoma, T/C %	93 % of control
Nc1nc(-c2ccccc2N=NN2CCCC2)nc2ccccc12	BDF1 mice, s.c. Lewis lung carcinoma, T/C %	105 % of control
C1=CC2(OCCO2)C2CC=CC3(OCCO3)C2C1 (stereo not given)	BDF1 mice, s.c. Lewis lung carcinoma, T/C %	88 % of control
O=C(Nc1ccc(C(=O)O)cc1)Oc1ccc(N(CCCl)CCCl)cc1	BDF1 mice, s.c. Lewis lung carcinoma, T/C %	100 % of control

Data request: Query for BDF1 mice, s.c. Lewis lung carcinoma, T/C %: what T/C does the record show for COc1ccc(NC(=O)N(CCCl)N=O)cc1OC ?
Data returned: 106 % of control

Data request: Thanks! And O=NN(CCCl)C(=O)Nc1ccc(I)cc1 ?
Data returned: 97 % of control

Data request: Thanks! And S=P(NCCNP(=S)(N1CC1)N1CC1)(N1CC1)N1CC1 ?
Data returned: 100 % of control

Data request: Thanks! And CC[C@@H](C(=O)[C@@H](C)[C@@H](O)[C@H](C)CCc1ccc(C)c(O)c1C(=O)O)[C@H]1O[C@](CC)([C@H]2CC[C@](O)(CC)[C@H](C)O2)C[C@@H]1C ?
Data returned: 96 % of control
